B1: CROP (parent)
chain: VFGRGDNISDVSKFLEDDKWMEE

# Variants of: B1
# RUN_DESCRIPTION: protein stability index of a GFP-peptide fusion (GPS, HEK-293T) (PSI 1-6); higher = more stable;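 further: lentivirally expressed fusions sorted by FACS into six bins by GFP to DsRed ratio, PSI derived from sequencing read proportions per bin multiplied by bin number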
# CONDITION_CONTEXT: c terminus: native
Here, each record is paired with measured protein stability index data.
Please state the value as a number alone, without comment.

Some variants with recorded protein stability index:
S9M
2.47
S12R
1.92
V11P
3.27
N7C
2.37
L15F
1.06

Now examine the next entry.
Q. State, in one line, measured protein stability index of L15K
A. 3.01
